- experimental.target: Cytochrome P450 1A2 (Homo sapiens) (UniProt P05177)
- Sequence (P05177 whole entry, looked up): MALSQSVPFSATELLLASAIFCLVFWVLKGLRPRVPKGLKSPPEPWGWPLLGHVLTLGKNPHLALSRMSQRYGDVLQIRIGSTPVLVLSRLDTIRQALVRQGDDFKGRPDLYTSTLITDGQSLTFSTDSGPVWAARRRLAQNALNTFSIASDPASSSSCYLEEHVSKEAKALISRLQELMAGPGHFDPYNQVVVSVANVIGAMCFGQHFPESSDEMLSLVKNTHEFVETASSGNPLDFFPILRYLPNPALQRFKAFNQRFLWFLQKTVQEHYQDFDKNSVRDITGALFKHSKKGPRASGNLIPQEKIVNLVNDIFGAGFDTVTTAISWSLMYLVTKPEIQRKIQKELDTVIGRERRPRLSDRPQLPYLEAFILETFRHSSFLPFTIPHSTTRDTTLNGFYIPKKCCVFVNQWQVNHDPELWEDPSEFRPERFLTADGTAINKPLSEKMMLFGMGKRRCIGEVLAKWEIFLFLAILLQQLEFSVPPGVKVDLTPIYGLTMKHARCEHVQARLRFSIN
- test.name: p450-cyp1a2 (AID 410)
- assay.context: recombinant CYP1A2, luciferin-ME demethylation, luminescence; series mostly up to 25.6 µM
Inconclusive results are not listed. Active and inactive are the calls of the source. Calls come from the whole dose curve.
Outcome codes: T = active, F = inactive

>>> label_value("Nc1ccc(S(=O)(=O)Nc2ccccn2)cc1")
"F"
>>> label_value("N[C@@H](Cc1ccc(O)c(O)c1)C(=O)O")
"F"
>>> label_value("CC1=NN(c2ccccc2)C(=O)C1")
"T"
>>> label_value("NC(=O)c1cccc(N)c1")
"T"
>>> label_value("CCCOc1ccc(C(=O)OCCN(CC)CC)cc1N")
"T"
>>> label_value("CC1=CC(=O)c2ccccc2C1=O")
"T"
>>> label_value("O=C(O)c1cccnc1")
"F"
>>> label_value("Cc1ncc([N+](=O)[O-])n1CCO")
"F"
>>> label_value("COC(=O)Nc1nc2ccc(C(=O)c3ccccc3)cc2[nH]1")
"T"
>>> label_value("CNNCc1ccc(C(=O)NC(C)C)cc1")
"T"
>>> label_value("O=c1oc2c(O)c(O)cc3c(=O)oc4c(O)c(O)cc1c4c23")
"T"
>>> label_value("CCn1cc(C(=O)O)c(=O)c2cc(F)c(N3CCNCC3)nc21")
"F"
>>> label_value("COc1cnc(NS(=O)(=O)c2ccc(N)cc2)nc1")
"F"
